assay_procedure: Determination of the partition coefficient (n-octanol/H2O, radioactivity counting)
Assay type: physicochemical
condition_info: ambient temperature, average of three measurements, read-out: Log P value
measurement_label: logP at 30 min
Provide a numeric answer; units are not to be included.

Which logP at 30 min is listed for O=[N+]([O-])c1nccn1Cn1cc(CC(CCC[18F])S(=O)(=O)O)nn1 (stereo not shown) [[^18F]AEL-3156] ?
-2.9
